- Run description: ATG_GLI_CIS: Attagene CIS-FACTORIAL HepG2 Assay for human Zinc Finger Protein GLI1 (AID 2282945)
- Setup conditions: HepG2, Attagene cis-factorial reporter mRNA, GLI element; actives raise or lower the signal
Calls of active or inactive are those of the source. Rule for the calls: active = hit-call score of the fitted dose curve at least 0.9, where 1 is the maximum; inactive = score below 0.9.
Use one of these outcomes when replying: active, inactive

A selection of reference data follows.
O=C(Nc1ccc2[nH]ccc2c1)c1cc2cc(F)ccc2n1Cc1cccc(F)c1 : inactive
COP(=O)(OC)O/C(=C\Cl)c1cc(Cl)c(Cl)cc1Cl : active
OCC(O)CCl (stereo not drawn) : inactive
CC(C)(C)c1cc(O)ccc1O : inactive
CCOC(=O)Nc1cccc(OC(=O)Nc2ccccc2)c1 : inactive
COc1ccccc1OC : inactive
CC(=O)c1cc(C(C)(C)C)cc2c1CCC2(C)C : active
C[C@]12CCC(=O)C[C@@H]1CC[C@@H]1[C@@H]2CC[C@]2(C)[C@@H](O)CC[C@@H]12 : inactive

Problem: I'd appreciate the recorded outcome for C[C@@H]1C[C@@H]([C@H](O)CC2CC(=O)NC(=O)C2)C(=O)[C@@H](C)C1 from this test.
Result: inactive

Problem: Then what about the molecule O=C1CCCN1 ?
Result: inactive

Problem: Then what about the molecule ClCC(Cl)CCl ?
Result: inactive
